System: ex vivo porcine jejunum
Assay: Ussing chamber permeation across ex vivo porcine jejunum
Format: in vitro ADME, pig
Conditions: drug retained in intestinal membrane at t = 2 h; presence of the corresponding transporter inhibitor (as E19)
Listed next: entries and their corresponding QDEP (+INH).
value-type: QDEP (+INH) (%)

INSERT INTO assay_data (smiles_repr, readout_unit, observed_value) VALUES
  ('CC(C)c1nc(N(C)S(C)(=O)=O)nc(-c2ccc(F)cc2)c1/C=C/[C@@H](O)C[C@@H](O)CC(=O)O', '%', 1.30),
  ('CCCCC(=O)N(Cc1ccc(-c2ccccc2-c2nnn[nH]2)cc1)[C@H](C(=O)O)C(C)C', '%', 0.57),
  ('O=C(O)c1cc(/N=N/c2ccc(S(=O)(=O)Nc3ccccn3)cc2)ccc1O', '%', 2.47),
  ('CNC(=C[N+](=O)[O-])NCCSCc1ccc(CN(C)C)o1', '%', 0.43);
